B1: library; numbered along this chain (parent)
chain: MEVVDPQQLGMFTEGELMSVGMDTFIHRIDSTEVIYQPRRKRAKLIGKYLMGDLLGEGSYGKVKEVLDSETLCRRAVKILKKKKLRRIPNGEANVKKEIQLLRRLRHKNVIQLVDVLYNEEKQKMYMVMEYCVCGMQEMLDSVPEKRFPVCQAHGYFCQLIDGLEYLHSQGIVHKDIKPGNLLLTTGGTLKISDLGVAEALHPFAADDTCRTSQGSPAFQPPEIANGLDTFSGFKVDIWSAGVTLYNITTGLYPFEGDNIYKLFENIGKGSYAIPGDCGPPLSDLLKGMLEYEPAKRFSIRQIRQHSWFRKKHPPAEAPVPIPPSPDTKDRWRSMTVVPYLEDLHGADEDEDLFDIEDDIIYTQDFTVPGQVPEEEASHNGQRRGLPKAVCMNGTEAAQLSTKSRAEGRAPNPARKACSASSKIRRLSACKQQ

Variants of: B1
Assay: STK11 functional score (HeLa growth suppression), rescaled enrichment; synonymous median = 1, nonsense median = 0 (normalised score)
Settings: with HeLa; variant type: missense
READOUT_LABEL: STK11 functional score
Respond using a number only.

Below, each entry is followed by its recorded STK11 functional score result.
Task: Could you share which STK11 functional score value was measured for A153R ?
Output: 0.204

Task: Could you share which STK11 functional score value was measured for E293A ?
Output: 1.03

Task: Could you share which STK11 functional score value was measured for A206V ?
Output: 0.497

Task: Could you share which STK11 functional score value was measured for D68A ?
Output: 0.846

Task: Could you share which STK11 functional score value was measured for D343L ?
Output: 0.93

Task: Could you share which STK11 functional score value was measured for Q364M ?
Output: 0.768

Task: Could you share which STK11 functional score value was measured for E374V ?
Output: 0.836

Task: Could you share which STK11 functional score value was measured for P319D ?
Output: 1.52

Continuing:
Task: Could you share which STK11 functional score value was measured for L386A ?
Output: 1.6

Task: Could you share which STK11 functional score value was measured for I26M ?
Output: 1.63

Task: Could you share which STK11 functional score value was measured for A389F ?
Output: 1.33
